assay: physchem
measurementLabel: chromatographic logP
Number, no unit, nothing else.

Example entries and their recorded answers appear below.
smilesNotation	measurementLabel	numericValue
O=C(Nc1ccc(Cl)c(C(=O)Nc2cccc(Cl)c2)c1)c1csc(C(F)(F)F)n1	chromatographic logP	3.82
Cn1nc(C(F)(F)C(F)(F)F)c(C(F)(F)F)c1C(=O)Nc1ccc(Br)c(C(=O)Nc2ccc(F)cc2)n1	chromatographic logP	4.45

// lookup chromatographic logP for Cn1nc(C(F)(F)F)c(Br)c1C(=O)Nc1ccc(Cl)c(C(=O)Nc2ccc(Cl)nc2)c1
3.42

====

assay: physchem
# chromatographic logP listing for each entry below
Answer as a number with no unit attached.

Item under review: O=C(Nc1ccc(F)cc1)c1cc(NC(=O)c2cnc(C(F)(F)C(F)(F)F)nc2C(F)(F)F)ccc1Cl . Reported chromatographic logP?
3.98

Data request, read-out chromatographic logP, for O=C(Nc1ccc(F)cc1)c1cc(NC(=O)c2cnc(C(F)(F)C(F)(F)F)nc2C(F)F)ccc1Cl
3.67

====

assay: physchem
chromatographic logP listing for selected molecules.
Write the value as a bare number.

Here's what some known entries look like.
smilesNotation	measurementLabel	numericValue
Cc1cc(NC(=O)c2cc(NC(=O)c3c(C(F)(F)F)c(C(F)(F)C(F)(F)F)nn3C)ccc2Cl)ccc1F	chromatographic logP	4.23
Cn1nc(C(F)(F)C(F)(F)F)c(C(F)(F)F)c1C(=O)Nc1ccc(Cl)c(C(=O)Nc2ccc(F)cc2)c1	chromatographic logP	3.89
Cn1nc(C(F)(F)C(F)(F)F)c(C(F)(F)F)c1C(=O)Nc1ccc(Cl)c(C(=O)Nc2ccc(F)cc2F)c1	chromatographic logP	4.05

Alright, here's another molecule for you.
Endpoint output: chromatographic logP of Cn1nc(C(F)(F)C(F)(F)F)c(C(F)(F)F)c1C(=O)Nc1ccc(Cl)c(C(=O)Nc2ccncc2)c1 . Value?
1.99

====

experiment: physchem
measurementLabel: chromatographic logP
# print the numeric value only

smilesNotation	chromatographic logP
Cn1nc(C(F)(F)C(F)(F)F)c(C(F)(F)F)c1C(=O)Nc1ccc(Cl)c(C(=O)Nc2cc(Cl)c(Cl)c(Cl)c2)c1	5.15
Cc1cc(NC(=O)c2cc(NC(=O)c3c(C(F)(F)F)c(C(F)(F)C(F)(F)F)nn3C)ccc2Cl)c(Cl)cc1F	4.64
Cc1c(NC(=O)c2cc(NC(=O)c3c(C(F)(F)F)c(C(F)(F)C(F)(F)F)nn3C)ccc2Cl)ccc(F)c1Cl	4.34

We now examine a further molecule.
State the recorded chromatographic logP for this entry: Cn1nc(C(F)(F)C(F)(F)F)c(C(F)(F)F)c1C(=O)Nc1ccc(Cl)c(C(=O)Nc2cccc(Cl)n2)c1
3.94

====

test system: Spodoptera frugiperda; assay: Spodoptera frugiperda test (SPODFR spray treatment); type: in vivo; details: 500 g/ha, sprayed maize leaf discs, caterpillars, after 7 days; 100 % = all caterpillars killed
measurementLabel: Wirkung (%)
Numeric only. Scale: %

smilesNotation	Wirkung [%]
COc1cccc(NC(=O)c2cc(NC(=O)c3c(C(F)(F)F)c(C(F)(F)C(F)(F)F)nn3C)ccc2Cl)c1	100
Cc1cc(F)ccc1NC(=O)c1cc(NC(=O)c2c(C(F)(F)F)c(C(F)(F)C(F)(F)F)nn2C)ccc1Cl	100
Cn1nc(C(F)(F)C(F)(F)F)c(C(F)(F)F)c1C(=O)Nc1ccc(Cl)c(C(=O)Nc2ccc(C(F)(F)F)cc2)c1	100
Cn1nc(C(F)(F)C(F)(F)F)c(C(F)(F)F)c1C(=O)Nc1ccc(Br)c(C(=O)Nc2ccc(F)cc2)n1	100
COc1ccc(NC(=O)c2cc(NC(=O)c3c(C(F)(F)F)c(C(F)(F)C(F)(F)F)nn3C)ccc2Cl)cc1	100

Fill blank: measured Wirkung of the compound O=C(Nc1ccc(F)cc1)c1cc(NC(=O)c2cnc(C(F)(F)C(F)(F)F)nc2C2CC2)ccc1Cl is ____.
100

Would you kindly share the measured Wirkung for Cc1cc(NC(=O)c2cc(NC(=O)c3c(C(F)(F)F)c(C(F)(F)C(F)(F)F)nn3C)ccc2Cl)ccc1F ?
100

Please give the measured Wirkung for this compound: Cn1nc(C(F)(F)C(F)(F)F)c(C(F)(F)F)c1C(=O)Nc1ccc(Cl)c(C(=O)Nc2ccc(F)cc2F)c1
100

# lookup: Wirkung of Cn1nc(C(F)(F)C(F)(F)F)c(C(F)(F)F)c1C(=O)Nc1ccc(Cl)c(C(=O)Nc2cccc(Cl)n2)c1
100

Item Cn1nc(C(F)(F)C(F)(F)F)c(C(F)(F)F)c1C(=O)Nc1ccc(Cl)c(C(=O)Nc2ccc(F)c(C(F)(F)F)c2)c1 has what recorded Wirkung?
100

Which Wirkung value is on record for Cn1nc(C(F)(F)C(F)(F)F)c(C(F)(F)F)c1C(=O)Nc1ccc(Cl)c(C(=O)Nc2ccc(Cl)cn2)c1 ?
100

====

// chromatographic logP lookup, one value per entry
assay: physchem
A bare number is all that is needed in reply.

compound	numericValue
Cn1nc(C(F)(F)C(F)(F)F)c(C(F)(F)F)c1C(=O)Nc1ccc(Cl)c(C(=O)Nc2ccccc2F)c1 [Ia-18]	3.94
COc1ccc(NC(=O)c2cc(NC(=O)c3c(C(F)(F)F)c(C(F)(F)C(F)(F)F)nn3C)ccc2Cl)cc1 [Ia-12]	3.68
Cn1nc(C(F)(F)C(F)(F)F)c(C(F)(F)F)c1C(=O)Nc1ccc(Cl)c(C(=O)Nc2cc(Cl)ccn2)c1 [Ia-26]	4.17

Here's the next entry for you.
State the recorded chromatographic logP for this entry: Cn1nc(C(F)(F)C(F)(F)F)c(C(F)(F)F)c1C(=O)Nc1ccc(Cl)c(C(=O)Nc2ccccc2)c1 [Ia-15]
3.84

====

# Lookup of reported chromatographic logP keyed by entry
experiment: physchem
I'd appreciate a reply containing only the number, no unit.

Worked set:
molecule	measurementLabel	numericValue
Cn1nc(C(F)(F)C(F)(F)F)c(C(F)(F)F)c1C(=O)Nc1ccc(Cl)c(C(=O)Nc2ccc(C(F)(F)F)cc2)c1 [Ia-36]	chromatographic logP	4.4
Cn1nc(C(F)(F)C(F)(F)F)c(C(F)(F)F)c1C(=O)Nc1ccc(Cl)c(C(=O)Nc2ccccn2)c1 [Ia-8]	chromatographic logP	3.53
Cn1nc(C(F)(F)C(F)(F)F)c(C(F)(F)F)c1C(=O)Nc1ccc(Cl)c(C(=O)Nc2cccc(Cl)c2)c1 [Ia-30]	chromatographic logP	4.28
Cn1nc(C(F)(F)C(F)(F)F)c(C(F)(F)F)c1C(=O)Nc1ccc(Cl)c(C(=O)Nc2ccnc(Cl)c2)c1 [Ia-6]	chromatographic logP	3.37

What value of measured chromatographic logP is listed for Cn1nc(C(F)(F)C(F)(F)F)c(C(F)(F)F)c1C(=O)Nc1ccc(Cl)c(C(=O)Nc2cnccc2Cl)c1 [Ia-4] ?
3.33

Can you share its chromatographic logP? I mean this molecule: Cn1nc(C(F)(F)C(F)(F)F)c(C(F)(F)F)c1C(=O)Nc1ccc(Cl)c(C(=O)Nc2cccc(C(F)(F)F)c2)c1 [Ia-37]
4.4

Name the reported chromatographic logP value associated with the molecule Cn1nc(C(F)(F)C(F)(F)F)c(C(F)(F)F)c1C(=O)Nc1ccc(Cl)c(C(=O)Nc2ccc(Cl)c(Cl)c2)c1 [Ia-42]
4.65

Looking for the measured chromatographic logP of Cn1nc(C(F)(F)C(F)(F)F)c(C(F)(F)F)c1C(=O)Nc1ccc(Cl)c(C(=O)Nc2cccnc2)c1 [Ia-2] , can you help?
2.69

Given the entry Cn1nc(C(F)(F)C(F)(F)F)c(C(F)(F)F)c1C(=O)Nc1ccc(Cl)c(C(=O)Nc2ccc(Cl)nc2)c1 [Ia-11] , report its measured chromatographic logP.
3.68

Name the reported chromatographic logP value associated with the molecule Cn1nc(C(F)(F)C(F)(F)F)c(C(F)(F)F)c1C(=O)Nc1ccc(Cl)c(C(=O)Nc2cccnc2Cl)c1 [Ia-13]
3.73

Could you tell me which chromatographic logP is on file for COc1cccc(NC(=O)c2cc(NC(=O)c3c(C(F)(F)F)c(C(F)(F)C(F)(F)F)nn3C)ccc2Cl)c1 [Ia-16] ?
3.84

Given the entry Cn1nc(C(F)(F)C(F)(F)F)c(C(F)(F)F)c1C(=O)Nc1ccc(Cl)c(C(=O)Nc2ccc(Cl)cn2)c1 [Ia-27] , report its measured chromatographic logP.
4.17

====

test: physchem
A collection of compounds and their measured chromatographic logP
Keep it simple and answer with nothing but the number.

smilesNotation	measurementLabel	numericValue
Cn1nc(C(F)(F)C(F)(F)F)c(C(F)(F)F)c1C(=O)Nc1ccc(Cl)c(C(=O)Nc2ccc(F)c(C(F)(F)F)c2)c1	chromatographic logP	4.51
Cn1nc(C(F)(F)C(F)(F)F)c(C(F)(F)F)c1C(=O)Nc1ccc(Cl)c(C(=O)Nc2ccccc2Cl)c1	chromatographic logP	4.28
Cn1nc(C(F)(F)C(F)(F)F)c(C(F)(F)F)c1C(=O)Nc1ccc(Cl)c(C(=O)Nc2ccc(Cl)cc2)c1	chromatographic logP	4.23

Switching to the query record.
Value lookup for chromatographic logP; key = Cc1cc(F)ccc1NC(=O)c1cc(NC(=O)c2c(C(F)(F)F)c(C(F)(F)C(F)(F)F)nn2C)ccc1Cl
4.05
